Reported TGI by item:
- System: OVCAR-8 ovarian
- assay-procedure: NCI tumour cell line growth inhibition, 48 h
attribute-measured: TGI

COC(=O)C1=C(OC(=O)/C(=C/c2ccccc2)c2ccc([N+](=O)[O-])cc2)C(C(=O)OC)[C@@]2(O)[C@@H](C(=O)OC)[C@H](C)C[C@@H]1[C@@H]2C(=O)OC (stereo not given in full) = > 100 µM
O=C1C(=O)/C(=C/c2ccccc2)CCCCCC/C1=C/c1ccccc1 = 12.7 µM
O=c1c(-c2ccccc2)c(SCCN2CCCC2)n(-c2ccccc2)c(=S)n1-c1ccccc1 = > 100 µM
Cc1ccccc1NC(=O)C(=O)C1CN(c2ccccc2)N=C1N (stereo not given) = > 100 µM
COc1cc(/C=C2\CCC(C)(CN(C)C)C2=O)cc(OC)c1OC (stereo not given) = > 100 µM

These entries and their values trace back to PubChem BioAssay (NCI).
